# test_protocol: Oral bioavailability in Sprague-Dawley rat at 3 mg/kg
# Assay type: ADME, organism-based
# condition: in vivo
attribute_measured: bioavailability

Q) Look at this molecule and give its reported bioavailability. `COC(=O)N[C@H](C(=O)N1C[C@@H](C)C[C@H]1c1ncc(-c2ccc(-c3ccc(-c4cc5[nH]c([C@@H]6C[C@H](C)CN6C(=O)[C@@H](NC(=O)OC)C(C)C)nc5s4)s3)cc2)[nH]1)C(C)C`
A) 11%

* * *

# test_protocol: Cytotoxicity against human HuhET cells by [3H]thymidine incorporation assay
# Assay type: cell-based
attribute_measured: CC50 (µM)
// units = µM; emit number, no label

Q) Look at this compound and give its reported CC50. `COC(=O)N[C@H](C(=O)N1C[C@@H](C)C[C@H]1c1cn2ccc(-c3ccc(-c4cc5[nH]c([C@@H]6C[C@H](C)CN6C(=O)[C@@H](NC(=O)OC)C(C)C)nc5s4)cc3)cc2n1)C(C)C`
A) 15.3

Q) Look at this compound and give its reported CC50. `COC(=O)N[C@H](C(=O)N1C[C@@H](C)C[C@H]1c1ncc(-c2ccc(-c3ccc(-c4cc5[nH]c([C@@H]6C[C@H](C)CN6C(=O)[C@@H](NC(=O)OC)C(C)C)nc5s4)cc3C)cc2)[nH]1)C(C)C`
A) 19.2

* * *

# test_protocol: Cytotoxicity against human HuhET cells by [3H]thymidine incorporation assay
# Format: cell-based
attribute_measured: CC50

Q) Look at this molecule and give its reported CC50. `COC(=O)N[C@H](C(=O)N1C[C@@H](C)C[C@H]1c1nc2sc(-c3ccc(-c4ccc5c(c4)nc([C@@H]4C[C@H](C)CN4C(=O)[C@@H](NC(=O)OC)C(C)C)n5C)cc3)cc2[nH]1)C(C)C`
A) > 20 µM

Q) Look at this molecule and give its reported CC50. `COC(=O)N[C@H](C(=O)N1C[C@@H](C)C[C@H]1c1cc2cc(-c3ccc(-c4cc5[nH]c([C@@H]6C[C@H](C)CN6C(=O)[C@@H](NC(=O)OC)C(C)C)nc5s4)cc3)ccc2[nH]1)C(C)C`
A) > 20 µM

Q) Look at this molecule and give its reported CC50. `COC(=O)N[C@H](C(=O)N1C[C@@H](C)C[C@H]1c1ncc(-c2ccc(-c3cc4sc(-c5cc6[nH]c([C@@H]7C[C@H](C)CN7C(=O)[C@@H](NC(=O)OC)C(C)C)nc6s5)cc4s3)cc2)[nH]1)C(C)C`
A) > 20 µM

Source of measurements: ChEMBL document CHEMBL3393045
